// provenance: patent US20230148450A9

tested_target: SOS1 nucleotide exchange of KRAS (catalytic domain of SOS1, residues 564-1049; wild-type KRAS) (Homo sapiens)
Construct: tagless catalytic domain of SOS1 (residues 564-1049)
Sequence (Q07889 564-1049): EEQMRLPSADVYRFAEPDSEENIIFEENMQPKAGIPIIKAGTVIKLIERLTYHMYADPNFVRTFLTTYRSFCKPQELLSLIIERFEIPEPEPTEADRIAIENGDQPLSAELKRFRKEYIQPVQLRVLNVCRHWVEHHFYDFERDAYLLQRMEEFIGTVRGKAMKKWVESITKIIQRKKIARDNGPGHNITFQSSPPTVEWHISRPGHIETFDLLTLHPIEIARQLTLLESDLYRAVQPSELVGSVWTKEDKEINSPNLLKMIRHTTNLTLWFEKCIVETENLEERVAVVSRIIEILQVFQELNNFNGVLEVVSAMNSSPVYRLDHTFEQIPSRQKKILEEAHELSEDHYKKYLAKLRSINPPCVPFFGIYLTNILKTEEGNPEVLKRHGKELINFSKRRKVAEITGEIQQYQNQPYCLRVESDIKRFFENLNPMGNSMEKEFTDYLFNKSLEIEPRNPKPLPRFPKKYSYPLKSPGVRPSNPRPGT
test_description: Mode of Action Assay: Inhibition of SOS1 Nucleotide Exchange Activity (TR-FRET)
condition: TR-FRET signal
pIC50: −log10 of the molar value.
test_readout: pIC50

>  <molecule>
C[C@@H](Nc1nc(Cl)nn2cc(C(=O)N3CC4(COC4)C3)cc12)c1cccc(C(F)(F)F)c1 [Example 96]

>  <reading>
< 6.00

$$$$
>  <molecule>
Cc1nc(N[C@H](C)c2cc(N)cc(C(F)(F)F)c2)c2cc(CN3CCOCC3)cn2n1 [Example 34]

>  <reading>
< 6.00

$$$$
>  <molecule>
Cc1cn2nc(C(=O)N3CCN(C)CC3)cc2c(N[C@H](C)c2cc(N)cc(C(F)(F)F)c2)n1 [Example 59]

>  <reading>
< 6.00

$$$$
>  <molecule>
CC(=O)N1CCN(c2cc3c(N[C@H](C)c4cccc(C(F)(F)F)c4)ncnn3c2)CC1 [Example 45]

>  <reading>
< 6.00

$$$$
>  <molecule>
CC(=O)N1CC2(C1)CN(C(=O)c1cn3c(N[C@H](C)c4cccc(C(F)F)c4F)nccc3n1)C2 [Example 89]

>  <reading>
> 6.00

$$$$
>  <molecule>
C[C@@H](Nc1ncnc2sc(C(=O)N3CCOCC3)nc12)c1cc(N)cc(C(F)(F)F)c1 [Example 42]

>  <reading>
> 6.00

$$$$
>  <molecule>
C[C@@H](Nc1ncnc2sc(C(=O)N3CCOCC3)cc12)c1cccc(C(F)(F)CO)c1 [Example 83]

>  <reading>
> 6.00

$$$$
>  <molecule>
C[C@@H](Nc1ncnn2cc(C(=O)N3CC4(CN(C)C4)C3)cc12)c1cccc(C(F)F)c1F [Example 70]

>  <reading>
> 6.00

$$$$
>  <molecule>
Cc1nc(N[C@H](C)c2cc(N)cc(C(F)(F)F)c2)c2cc(C(=O)N3CCN(C)CC3)cn2n1 [Example 36]

>  <reading>
> 6.00

$$$$
>  <molecule>
Cc1nc(N[C@H](C)c2cc(N)cc(C(F)(F)F)c2)c2cc(C3(O)CC(O)C3)cn2n1 (stereo partly shown) [Example 35]

>  <reading>
< 6.00

$$$$
>  <molecule>
Cc1cn2nc(C(=O)N3CC4CC(C3)N4C)cc2c(N[C@H](C)c2cc(N)cc(C(F)(F)F)c2)n1 [Example 80]

>  <reading>
< 6.00

$$$$
>  <molecule>
Cc1cn2nc(C(=O)N3CCN4CCC4C3)cc2c(N[C@H](C)c2cc(N)cc(C(F)(F)F)c2)n1 (stereo partly shown) [Example 82]

>  <reading>
> 6.00

$$$$
>  <molecule>
C[C@@H](Nc1ncnn2cc(C(=O)N3CC4(C3)CN(C3COC3)C4)cc12)c1cccc(C(F)F)c1F [Example 72]

>  <reading>
> 6.00

$$$$
>  <molecule>
Cc1nc(N[C@H](C)c2cc(N)cc(C(F)(F)F)c2)c2cc(C3=CCNCC3)sc2n1 [Example 46]

>  <reading>
< 6.00

$$$$
>  <molecule>
COc1ncccc1-c1cc2c(N[C@H](C)c3cc(N)cc(C(F)(F)F)c3)nc(C)nn2c1 [Example 64]

>  <reading>
< 6.00

$$$$
>  <molecule>
C[C@@H](Nc1cc(C(F)(F)F)cn2nc(C3=CCNCC3)nc12)c1cc(N)cc(C(F)(F)F)c1 [Example 54]

>  <reading>
< 6.00

$$$$
